Numbers sourced from ChEMBL document CHEMBL1138006.

reported.endpoint: IC50

Hey, Prostaglandin G/H synthase 1 (Homo sapiens) data for CS(=O)(=O)c1ccc(-c2c(-c3ccc(F)cc3)nn3ncccc23)cc1 : IC50 came out at > 100 µM

Hey, Prostaglandin G/H synthase 1 (Homo sapiens) data for COc1ccc2c(-c3ccc(S(C)(=O)=O)cc3)c(-c3ccc(F)cc3)nn2n1 : IC50 came out at > 35.1 µM

Hey, Prostaglandin G/H synthase 1 (Homo sapiens) data for Cc1ccc2c(-c3ccc(S(C)(=O)=O)cc3)c(-c3ccc(F)cc3)nn2n1 : IC50 came out at > 100 µM

Hey, Prostaglandin G/H synthase 1 (Homo sapiens) data for CCc1ccc2c(-c3ccc(S(C)(=O)=O)cc3)c(-c3ccc(F)cc3)nn2n1 : IC50 came out at > 100 µM

Hey, Prostaglandin G/H synthase 1 (Homo sapiens) data for COc1ccc2c(-c3ccc(S(N)(=O)=O)cc3)c(-c3ccc(F)cc3)nn2n1 : IC50 came out at 2.61 µM

Hey, Prostaglandin G/H synthase 1 (Homo sapiens) data for NS(=O)(=O)c1ccc(-c2c(-c3ccc(F)cc3)nn3ncccc23)cc1 : IC50 came out at 24.1 µM

Hey, Prostaglandin G/H synthase 1 (Homo sapiens) data for COc1ccc2c(-c3ccc(S(C)(=O)=O)cc3)c(-c3ccc(C)cc3)nn2n1 : IC50 came out at > 100 µM

Hey, Prostaglandin G/H synthase 1 (Homo sapiens) data for CS(=O)(=O)c1ccc(-c2c(-c3cccc(F)c3)nn3ncccc23)cc1 : IC50 came out at 58.3 µM

Hey, Prostaglandin G/H synthase 1 (Homo sapiens) data for Cc1ccc(-c2nn3ncccc3c2-c2ccc(S(C)(=O)=O)cc2)cc1 : IC50 came out at > 19.1 µM

Hey, Prostaglandin G/H synthase 1 (Homo sapiens) data for CS(=O)(=O)c1ccc(-c2c(-c3ccccc3)nn3ncccc23)cc1 : IC50 came out at > 100 µM

Hey, Prostaglandin G/H synthase 1 (Homo sapiens) data for Cc1ccc(-c2ncc(Cl)cc2-c2ccc(S(C)(=O)=O)cc2)cn1 [ETORICOXIB] : IC50 came out at > 100 µM

Hey, Prostaglandin G/H synthase 1 (Homo sapiens) data for CCOc1ccc2c(-c3ccc(S(C)(=O)=O)cc3)c(-c3ccc(F)cc3)nn2n1 : IC50 came out at > 100 µM

Hey, Prostaglandin G/H synthase 1 (Homo sapiens) data for CCOc1ccc(-c2nn3nc(S(C)(=O)=O)ccc3c2-c2ccc(S(N)(=O)=O)cc2)cc1 : IC50 came out at > 100 µM

Hey, Prostaglandin G/H synthase 1 (Homo sapiens) data for NS(=O)(=O)c1ccc(-c2c(-c3ccc(OC(F)(F)F)cc3)nn3ncccc23)cc1 : IC50 came out at > 100 µM

Hey, Prostaglandin G/H synthase 1 (Homo sapiens) data for CC(C)Oc1ccc2c(-c3ccc(S(C)(=O)=O)cc3)c(-c3ccc(F)cc3)nn2n1 : IC50 came out at > 100 µM

Hey, Prostaglandin G/H synthase 1 (Homo sapiens) data for CCOc1ccc(-c2nn3nc(SC)ccc3c2-c2ccc(S(N)(=O)=O)cc2)cc1 : IC50 came out at 8.63 µM

Hey, Prostaglandin G/H synthase 1 (Homo sapiens) data for CCOc1ccc(-c2nn3ncccc3c2-c2ccc(S(C)(=O)=O)cc2)cc1 [GW-406381] : IC50 came out at > 84.2 µM

Hey, Prostaglandin G/H synthase 1 (Homo sapiens) data for Cc1ccc2c(-c3ccc(S(C)(=O)=O)cc3)c(-c3ccccc3)nn2n1 : IC50 came out at 43.9 µM
